Property: microsomal CLint at 0.5 μM; scope: individual molecules
# protocol: Determination of the microsomal half-life / microsomal clearance
# Format: in vitro ADME
# protocol.conditions: pH 7.4; human liver microsomes, 0.5 μM test substance

Q: Determine from records and report microsomal CLint at 0.5 μM for CCOc1ncccc1C1(CC(=O)N2CCC(N3CCN(CC)CC3)CC2)C(=O)N(S(=O)(=O)c2ccc(OC)cc2OC)c2ccc(C#N)cc21.O=C(O)C(F)(F)F (racemic) [Example 2, trifluoroacetic acid salt]
Result: < 100 µL/min/mg

###

Target sequence: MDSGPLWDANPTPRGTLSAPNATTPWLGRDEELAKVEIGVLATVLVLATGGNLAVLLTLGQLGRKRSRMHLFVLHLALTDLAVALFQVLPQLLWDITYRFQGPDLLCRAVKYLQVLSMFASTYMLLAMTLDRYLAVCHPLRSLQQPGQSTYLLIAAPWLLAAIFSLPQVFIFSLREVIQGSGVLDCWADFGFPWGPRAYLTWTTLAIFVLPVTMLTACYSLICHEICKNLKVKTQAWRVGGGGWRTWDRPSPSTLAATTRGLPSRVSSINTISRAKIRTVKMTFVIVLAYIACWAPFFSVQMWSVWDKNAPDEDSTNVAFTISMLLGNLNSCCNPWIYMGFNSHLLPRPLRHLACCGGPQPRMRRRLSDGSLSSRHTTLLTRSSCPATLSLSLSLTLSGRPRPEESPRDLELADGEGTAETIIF
pKi: −log10 of the molar value.
pKi: recorded values

Below, each entry is followed by its recorded pKi result.
Q: Tell us which pKi value is on record for CCOc1ncccc1C1(CC(=O)N2CCC(N3CCN(C)CC3)CC2)C(=O)N(S(=O)(=O)c2ccccc2)c2ccc(C#N)cc21.O=C(O)C(F)(F)F (racemic) [Example 1, trifluoroacetic acid salt]
Result: 7.52 to 8.52

Q: Please list pKi recorded for the compound CCOc1ncccc1C1(CC(=O)N2CCC(N3CCN(C)CC3)CC2)C(=O)N(S(=O)(=O)c2ccc(OC)cc2OC)c2ccc(C#N)cc21.O=C(O)C(F)(F)F (racemic) [Example 6, trifluoroacetic acid salt]
Result: > 8.52

Q: Find the measured pKi of CCOc1ncccc1C1(CC(=O)N2CCC(N3CCN(CC)CC3)CC2)C(=O)N(S(=O)(=O)c2ccccc2)c2ccc(C#N)cc21.O=C(O)C(F)(F)F (racemic) [Example 3, trifluoroacetic acid salt] and report it.
Result: 7.52 to 8.52

Q: Give the reported value of pKi for this record: CCOc1ncccc1C1(CC(=O)N2CCN(C3CCN(CC)CC3)CC2)C(=O)N(S(=O)(=O)c2ccc(OC)cc2OC)c2ccc(C#N)cc21 (single isomer, unassigned; (-)) [Example 10B]
Result: > 8.52

Q: Query pKi for CCOc1ncccc1C1(CC(=O)N2CCC(N3CCN(CC)CC3)CC2)C(=O)N(S(=O)(=O)c2ccccc2OC)c2ccc(C#N)cc21.O=C(O)C(F)(F)F (racemic) [Example 4, trifluoroacetic acid salt]
Result: 7.52 to 8.52

Q: For the compound CCOc1ncccc1C1(CC(=O)N2CCC(N3CCN(CC)CC3)CC2)C(=O)N(S(=O)(=O)c2ccc(OC)cc2OC)c2ccc(C#N)cc21.O=C(O)C(F)(F)F (racemic) [Example 2, trifluoroacetic acid salt] , give its reported pKi.
Result: > 8.52

Q: Tell me its pKi given CCOc1ncccc1C1(CC(=O)N2CCN(C3CCN(C)CC3)CC2)C(=O)N(S(=O)(=O)c2ccccc2)c2ccc(C#N)cc21.O=C(O)C(F)(F)F (racemic) [Example 7, trifluoroacetic acid salt] as the entry.
Result: 7.52 to 8.52

Q: Give me measured pKi, please, for this compound: CCOc1ncccc1C1(CC(=O)N2CCN(C3CCN(C)CC3)CC2)C(=O)N(S(=O)(=O)c2ccccc2OC)c2ccc(C#N)cc21.O=C(O)C(F)(F)F (racemic) [Example 8, trifluoroacetic acid salt]
Result: 7.52 to 8.52

Turning now to a further compound:
Q: Read the entry CCOc1ncccc1C1(CC(=O)N2CCN(C3CCN(C)CC3)CC2)C(=O)N(S(=O)(=O)c2ccc(OC)cc2OC)c2ccc(C#N)cc21.O=C(O)C(F)(F)F (racemic) [Example 9, trifluoroacetic acid salt] and write its reported pKi.
Result: > 8.52

###

Each entry below lists one item and its recorded microsomal CLint at 0.5 μM value.
# protocol: Determination of the microsomal half-life / microsomal clearance
# Assay type: in vitro ADME
# protocol.conditions: pH 7.4; human liver microsomes, 0.5 μM test substance

For orientation, consider the following solved cases.
Q: State its microsomal CLint at 0.5 μM for this compound: CCOc1ncccc1C1(CC(=O)N2CCN(C3CCN(CC)CC3)CC2)C(=O)N(S(=O)(=O)c2ccc(OC)cc2OC)c2ccc(C#N)cc21 (single isomer, unassigned; (-)) [Example 10B]
Result: < 100 µL/min/mg

Q: For CCOc1ncccc1C1(CC(=O)N2CCN(C3CCN(C)CC3)CC2)C(=O)N(S(=O)(=O)c2ccccc2OC)c2ccc(C#N)cc21.O=C(O)C(F)(F)F (racemic) [Example 8, trifluoroacetic acid salt] , write its microsomal CLint at 0.5 μM.
Result: < 100 µL/min/mg

Q: Supply measured microsomal CLint at 0.5 μM of CCOc1ncccc1C1(CC(=O)N2CCC(N3CCN(C)CC3)CC2)C(=O)N(S(=O)(=O)c2ccc(OC)cc2OC)c2ccc(C#N)cc21.O=C(O)C(F)(F)F (racemic) [Example 6, trifluoroacetic acid salt] in your reply.
Result: < 100 µL/min/mg

New cases:
Q: Output measured microsomal CLint at 0.5 μM for this item: CCOc1ncccc1C1(CC(=O)N2CCC(N3CCN(CC)CC3)CC2)C(=O)N(S(=O)(=O)c2ccccc2OC)c2ccc(C#N)cc21.O=C(O)C(F)(F)F (racemic) [Example 4, trifluoroacetic acid salt]
Result: 100 to 200 µL/min/mg
